Overview of reported koff across a group of binders:
Molecular target: T1, rat α-CGRP (1-37) (rat, C-terminal amide; N-terminal biotin when captured on the SA chip)
T1 construct: also called rat α (1-37); α-rat
T1 peptide: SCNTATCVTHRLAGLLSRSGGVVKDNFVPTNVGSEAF
Assay: Biacore, 37°C, Fab over CGRP on SA chip
Protocol: Biacore assay for affinity determination. […] All Biacore assays were conducted in HBS-EP running buffer (10 mM HEPES pH 7.4, 150 mM NaCl, 3 mM EDTA, 0.005% v/v polysorbate P20). CGRP surfaces were prepared by diluting the N-biotinylated CGRP to a concentration of less than 0.001 mg/mL into HBS-EP buffer and injecting it across the SA sensor chip using variable contact times. […] Samples were typically injected for 1 minute at 100 μL/min and dissociation times of at least 10 minutes were allowed. […]
Give just the numeric value; s⁻¹ need not be written.

BINDER | MEASUREMENT_TYPE | UNIT_SPEC | TEST_VALUE
G1 variant M26 Fab (Fab, V domains shown, Fab; constant domains as m1) VH: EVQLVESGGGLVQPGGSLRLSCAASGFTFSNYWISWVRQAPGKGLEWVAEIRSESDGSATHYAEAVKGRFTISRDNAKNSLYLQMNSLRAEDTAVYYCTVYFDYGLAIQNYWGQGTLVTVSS VL: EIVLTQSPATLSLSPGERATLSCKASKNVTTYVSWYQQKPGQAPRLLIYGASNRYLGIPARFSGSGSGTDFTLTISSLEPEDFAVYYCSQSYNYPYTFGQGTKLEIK | koff | s⁻¹ | 0.000924

Then this binder:
Which koff value belongs to G1 variant M7 Fab (Fab, V domains shown, Fab; constant domains as m1) VH: EVQLVESGGGLVQPGGSLRLSCAASGFTFSNYWISWVRQAPGKGLEWVAEIRSESDASATHYAEAVKGRFTISRDNAKNSLYLQMNSLRAEDTAVYYCNCYFDYGLAIQNYWGQGTLVTVSS VL: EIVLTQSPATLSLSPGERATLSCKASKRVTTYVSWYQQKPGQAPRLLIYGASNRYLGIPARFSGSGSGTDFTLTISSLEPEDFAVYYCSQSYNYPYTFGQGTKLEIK ?
0.000918
